assay: Plasma concentration after intravaginal administration of vaginal ring; format: in vivo, Cynomolgus monkeys; conditions: female, cynomolgus monkey, plasma, other: intravaginal (vaginal ring), 40 mg, ring 40 mg free base; Phase 1 Group 1; 21 d; group mean; read-out: Plasma concentration of Pritelivir free base, Mean
readout kind: concentration at 21 d (ng/mL)
Write the number in ng/mL without appending the unit.

**Query** Please look up its concentration at 21 d: Cc1nc(N(C)C(=O)Cc2ccc(-c3ccccn3)cc2)sc1S(N)(=O)=O [Pritelivir free base]
**Result** 2.91

###

experiment: Plasma concentration after intravaginal administration of vaginal ring; assay type: in vivo, Cynomolgus monkeys; settings: female, cynomolgus monkey, plasma, other: intravaginal (vaginal ring), 40 mg, ring 40 mg free base; Phase 1 Group 1; 7 d; group mean; read-out: Plasma concentration of Pritelivir free base, Mean
readout kind: concentration at 7 d (ng/mL)
Write the number in ng/mL without appending the unit.

**Query** Please look up its concentration at 7 d: Cc1nc(N(C)C(=O)Cc2ccc(-c3ccccn3)cc2)sc1S(N)(=O)=O [Pritelivir free base]
**Result** 3.66

###

assay: Plasma concentration after intravaginal administration of vaginal ring; assay type: in vivo, Cynomolgus monkeys; settings: female, cynomolgus monkey, plasma, other: intravaginal (vaginal ring), 40 mg, ring 40 mg free base; Phase 1 Group 1; 24 d; group mean; read-out: Plasma concentration of Pritelivir free base, Mean
readout kind: concentration at 24 d (ng/mL)
Write the number in ng/mL without appending the unit.

**Query** Please look up its concentration at 24 d: Cc1nc(N(C)C(=O)Cc2ccc(-c3ccccn3)cc2)sc1S(N)(=O)=O [Pritelivir free base]
**Result** 2.99
